B1: Transitional endoplasmic reticulum ATPase, residues 26 to 106; numbered along this chain, P55072 (parent)
chain: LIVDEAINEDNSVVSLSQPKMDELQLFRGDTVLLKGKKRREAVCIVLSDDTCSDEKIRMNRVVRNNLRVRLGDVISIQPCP

# Variants of: B1
# assaySummary: abundance fitness (aPCA) (normalised: wild type 0, dead -1); higher = more abundant; growth selection in yeast, the domain comes from the species named
# conditionContext: Homo sapiens
Class field: derived from abundance fitness; ranges LOW: < -0.6; MID: ≥ -0.6 and < 0.04; HIGH: ≥ 0.04

• L1I = HIGH

Hello team, could you let me know which band the following variant falls into: S17L LOW

Continue with V46F LOW

// repeat for D4R and report LOW

Now the variant E23N MID

Field entry: Q25N MID
